pIC50 by entry:
Target: MNK2 (Homo sapiens)
Construct: the open reading frames of human Mnk1 and Mnk2a were amplified from cDNA
Assay: Mnk2a in vitro kinase assay (indirect fluorescence polarization)
Conditions: pre-activated GST-Mnk2a 2.5 nM, 20 μM ATP, 30 μM substrate peptide
Quick note: pIC50 values are minus log10 of concentrations in mol/L.

| molecule | pIC50 |
| --- | --- |
| COCCN(C)[C@H]1CC[C@H](Oc2cc(F)ccc2Nc2ncnc3sc(C(N)=O)c(C)c23)CC1 | 7.19 |

Here is another molecule to look at.
Exercise: Answer with reported pIC50 of CNC(=O)c1sc2ncnc(Nc3cccnc3O[C@H]3CC[C@H](N)CC3)c2c1C
Key: 8.05

----------
Biological target: MNK2 (Homo sapiens, UniProt Q9HBH9)
Construct: the open reading frames of human Mnk1 and Mnk2a were amplified from cDNA
Sequence (Q9HBH9 whole entry): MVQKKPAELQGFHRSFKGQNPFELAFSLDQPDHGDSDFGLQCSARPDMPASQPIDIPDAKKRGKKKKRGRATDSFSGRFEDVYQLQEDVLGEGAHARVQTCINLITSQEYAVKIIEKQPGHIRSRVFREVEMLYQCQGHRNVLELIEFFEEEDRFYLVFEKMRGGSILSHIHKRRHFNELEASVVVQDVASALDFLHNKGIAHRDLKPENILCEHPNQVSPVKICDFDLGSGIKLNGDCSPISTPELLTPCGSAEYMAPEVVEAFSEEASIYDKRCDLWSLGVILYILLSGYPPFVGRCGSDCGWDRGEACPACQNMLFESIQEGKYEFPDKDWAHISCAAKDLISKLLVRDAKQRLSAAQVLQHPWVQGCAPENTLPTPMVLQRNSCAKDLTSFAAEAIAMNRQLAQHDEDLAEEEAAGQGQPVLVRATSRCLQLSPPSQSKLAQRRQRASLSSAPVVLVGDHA
Experiment: Mnk2a in vitro kinase assay (indirect fluorescence polarization)
Details: pre-activated GST-Mnk2a 2.5 nM, 20 μM ATP, 30 μM substrate peptide
// IC50 lookup, one value per entry
Field format: number, assumed nM, no unit text.

| molecule | readout.units | IC50 |
| --- | --- | --- |
| Cc1c(C(N)=O)sc2ncnc(Nc3ccc(F)cc3O[C@@H]3CCCC[C@@H]3O)c12 (racemic) [Example 56] | nM | 33 |
| Cc1c(C(=O)NCc2cnco2)sc2ncnc(Nc3ccc(F)cc3O[C@@H]3CCC[C@@H](O)C3)c12 (racemic) [Example 62] | nM | 17 |
| CO[C@@H]1CCC[C@@H](Oc2cc(F)ccc2Nc2ncnc3sc(C(=O)NCc4cnco4)c(C)c23)C1 (racemic) [Example 82] | nM | 44 |
| Cc1c(C(N)=O)sc2ncnc(Nc3ccc(F)cc3OC3CCC(F)(F)CC3)c12 [Example 33] | nM | 7 |
| Cc1c(C(=O)NCc2cn(C)cn2)sc2ncnc(Nc3ccc(F)cc3O[C@H]3CC[C@H](O)CC3)c12 [Example 174] | nM | 10 |

Exercise: Send back MNK2 (Homo sapiens, UniProt Q9HBH9) IC50 of COC1CCCC(Oc2ncccc2Nc2ncnc3sc(C(=O)NCC4COCCN4)c(C)c23)C1 (mixture of isomers) [Example 141] only.
Key: 89

Exercise: Under MNK2 (Homo sapiens, UniProt Q9HBH9): report IC50 of CO[C@@H]1CCCC[C@H]1Oc1cc(F)ccc1Nc1ncnc2sc(C(=O)O)c(C)c12 [Example 248] .
Key: 10

----------
pIC50 by entry:
Molecular target: MNK2 (Homo sapiens, UniProt Q9HBH9)
Construct: the open reading frames of human Mnk1 and Mnk2a were amplified from cDNA; made in house; host or cells: E. coli BL21
Assay: Mnk2a in vitro kinase assay (indirect fluorescence polarization)
Assay type: biochemical
Conditions: pre-activated GST-Mnk2a 2.5 nM, 20 μM ATP, 30 μM substrate peptide
Please report pIC50 as the negative decimal logarithm of the molar concentration, giving only the number.

| molecule | observed.result |
| --- | --- |
| CO[C@H]1CC[C@H](Oc2cc(F)ccc2Nc2ncnc3sc(C(=O)NCC(C)O)c(C)c23)CC1 (some centres unmarked) | 7.42 |
| CO[C@@H]1CCCC[C@H]1Oc1cc(F)ccc1Nc1ncnc2sc(C(=O)NCC[S+](C)[O-])c(C)c12 (some centres unmarked) | 7.85 |
| CO[C@@H]1CCC[C@@H](Oc2ncccc2Nc2ncnc3sc(C(N)=O)c(C)c23)C1 (racemic) | 7.74 |
| Cc1c(C(=O)NC2CC2N)sc2ncnc(Nc3ccc(F)cc3OC3CCCC(O)C3)c12 (mixture of isomers) | 7.47 |
| Cc1c(C(N)=O)sc2ncnc(Nc3ccc(F)cc3O[C@H]3CC[C@@H](N4CCOCC4)CC3)c12 | 5.01 |

Exercise: For the molecule Cc1c(C(N)=O)sc2ncnc(Nc3ccc(F)cc3O[C@H]3CC[C@@H](O)CC3)c12 , give its measured pIC50 value.
Key: 7.96

Exercise: Let me know recorded pIC50 for Cc1c(C(=O)NCCCO)sc2ncnc(Nc3ccc(F)cc3O[C@@H]3CCC[C@@H](O)C3)c12 (racemic) , thanks.
Key: 7.66

Exercise: Dear colleague, please send me the reported pIC50 for COC1CCCC(Oc2ncccc2Nc2ncnc3sc(C(=O)NC4CC4N)c(C)c23)C1 (mixture of isomers) [Example 132] when you can.
Key: 7.02

Exercise: Read the entry CN[C@H]1CCC[C@@H](Oc2cc(F)ccc2Nc2ncnc3sc(C(N)=O)c(C)c23)C1 (relative stereo) and write its reported pIC50.
Key: 7.55

Exercise: Name the recorded pIC50 of the molecule listed here: CO[C@H]1CC[C@H](Oc2cc(F)ccc2Nc2ncnc3sc(C(=O)NCC4CNCCO4)c(C)c23)CC1 (some centres unmarked)
Key: 7.80

Exercise: Provide only the value of recorded pIC50 for CC(=O)N[C@H]1C[C@H](Oc2cc(F)ccc2Nc2ncnc3sc(C(=O)NCC#CCN(C)C)c(C)c23)C1
Key: 7.41

Exercise: Please supply the value of reported pIC50 for the item CO[C@@H]1CCC[C@@H](Oc2ncccc2Nc2ncnc3sc(C(=O)NCCCN4CCCC4)c(C)c23)C1 (racemic)
Key: 7.31

Exercise: Item CO[C@@H]1C[C@H](OC)C[C@H](Oc2cc(F)ccc2Nc2ncnc3sc(C(N)=O)c(C)c23)C1 : provide pIC50
Key: 7.05

Exercise: Please report the measured pIC50 for CO[C@@H]1CCC[C@@H](Oc2ncccc2Nc2ncnc3sc(C(=O)NCc4cnco4)c(C)c23)C1 (racemic)
Key: 7.19

----------
Some compounds, each annotated with its measured IC50.
Target: MNK2 (Homo sapiens, UniProt Q9HBH9)
Construct: the open reading frames of human Mnk1 and Mnk2a were amplified from cDNA
Test: Mnk2a in vitro kinase assay (indirect fluorescence polarization)
Details: pre-activated GST-Mnk2a 2.5 nM, 20 μM ATP, 30 μM substrate peptide
# value in nM; strip the unit string

| compound | IC50, nM |
| --- | --- |
| CO[C@H]1CCCC[C@@H]1Oc1cc(F)ccc1Nc1ncnc2sc(C(=O)NCCCN(C)C)c(C)c12 | 360 |

Exercise: State the measured IC50 (MNK2 (Homo sapiens, UniProt Q9HBH9)) of Cc1c(C(=O)NCC#N)sc2ncnc(Nc3ccc(F)cc3O[C@H]3CC[C@H](O)CC3)c12
Key: 9

Exercise: Enter measured IC50, system MNK2 (Homo sapiens, UniProt Q9HBH9), for the compound shown: Cc1c(C(=O)NCC(C)O)sc2ncnc(Nc3ccc(F)cc3O[C@H]3CC[C@H](O)CC3)c12 (stereo partly shown)
Key: 43

Exercise: Provide IC50, system MNK2 (Homo sapiens, UniProt Q9HBH9), entry COC1CCCC(Oc2ncccc2Nc2ncnc3sc(C(=O)NCC#CCN(C)C)c(C)c23)C1 (stereo not shown)
Key: 12

Exercise: Quote MNK2 (Homo sapiens, UniProt Q9HBH9) IC50 for entry COC1CCCC(Oc2cc(F)ccc2Nc2ncnc3sc(C(=O)NCc4cn(C)cn4)c(C)c23)C1 (stereo not shown) .
Key: 18

Exercise: # assay system MNK2 (Homo sapiens, UniProt Q9HBH9): give IC50 of Cc1c(C(=O)NCCCN2CCCC2)sc2ncnc(Nc3ccc(F)cc3O[C@H]3CCC[C@H](O)C3)c12
Key: 18

Exercise: Report its IC50 with MNK2 (Homo sapiens, UniProt Q9HBH9) as the test system: Cc1c(C(N)=O)sc2ncnc(Nc3ccc(F)cc3O[C@@H]3CCC[C@@H]3O)c12 (relative stereo)
Key: 8

----------
Target: MNK2 (Homo sapiens)
Construct: the open reading frames of human Mnk1 and Mnk2a were amplified from cDNA; made in house; host or cells: E. coli BL21
Experiment: Mnk2a in vitro kinase assay (indirect fluorescence polarization)
Assay type: biochemical
Settings: pre-activated GST-Mnk2a 2.5 nM, 20 μM ATP, 30 μM substrate peptide
Checkbox rule: IC50 lower than 20 nM = Satisfied; IC50 not lower than 20 nM = Not satisfied.

Solved cases below.
| molecule | label |
| --- | --- |
| Cc1c(C(=O)NC2CCN(C)CC2)sc2ncnc(Nc3cccnc3O[C@H]3CC[C@H](O)CC3)c12 [Example 269] | Not satisfied |
| Cc1c(C(N)=O)sc2ncnc(Nc3ccc(F)cc3O[C@@H]3CCCC[C@H]3O)c12 [Example 52] | Not satisfied |
| CNC(=O)CNC(=O)c1sc2ncnc(Nc3ccc(F)cc3O[C@@H]3CCC[C@@H](O)C3)c2c1C (racemic) [Example 64] | Not satisfied |
| CC(=O)N[C@H]1CC[C@H](Oc2cc(F)ccc2Nc2ncnc3sc(C(=O)NCCCN(C)C)c(C)c23)CC1 [Example 6] | Satisfied |
| CO[C@H]1CC[C@@H](Oc2cc(F)ccc2Nc2ncnc3sc(C(=O)NCCCN(C)C)c(C)c23)CC1 [Example 202] | Not satisfied |
| Cc1c(C(=O)NCCO)sc2ncnc(Nc3ccc(F)cc3OC3CCC(O)C3)c12 (stereo not shown) [Example 227] | Satisfied |

As a next step, examine the molecule that follows.
Exercise: In the record for Cc1c(C(N)=O)sc2ncnc(Nc3ccc(F)cc3O[C@H]3CCCC[C@@H]3O)c12 [Example 51] , is IC50 less than 20 nM?
Key: Satisfied
